Record form. Attribute: % of WT binding. Fill in for each entry.
molecular target: Full length LIGHT S194A on HEK293FF cells (Homo sapiens (Human), UniProt O43557 1-240); assay: flow cytometry, HEK293FF, mAb at EC50
Sequence (O43557 whole entry S194A): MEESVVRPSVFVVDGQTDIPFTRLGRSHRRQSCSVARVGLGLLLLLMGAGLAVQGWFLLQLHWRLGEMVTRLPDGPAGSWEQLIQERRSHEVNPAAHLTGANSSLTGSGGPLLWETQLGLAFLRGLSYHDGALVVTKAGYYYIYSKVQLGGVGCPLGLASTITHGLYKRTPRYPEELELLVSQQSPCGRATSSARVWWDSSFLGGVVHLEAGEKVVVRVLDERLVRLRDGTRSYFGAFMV
Numbers only, in %.

{"binder": "2B11 chimeric IgG4 mAb (antibody, V domains shown, Chimeric human IgG4 (S-to-P, L-to-E) with human CL, as m1; Often misprinted 2B111; also called Parental 2B11; 2B111) VH: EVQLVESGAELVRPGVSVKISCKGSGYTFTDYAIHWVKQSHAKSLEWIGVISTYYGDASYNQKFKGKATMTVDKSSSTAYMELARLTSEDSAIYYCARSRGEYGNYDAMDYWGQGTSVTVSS VL: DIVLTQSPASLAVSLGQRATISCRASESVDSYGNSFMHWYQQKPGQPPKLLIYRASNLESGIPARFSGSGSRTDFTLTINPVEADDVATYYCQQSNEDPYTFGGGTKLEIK", "% of WT binding / %": 0}

Shift focus to the following entry.
% of WT binding reading for 3B04 chimeric IgG4 mAb (antibody, V domains shown, also called Parental 3B04) VH: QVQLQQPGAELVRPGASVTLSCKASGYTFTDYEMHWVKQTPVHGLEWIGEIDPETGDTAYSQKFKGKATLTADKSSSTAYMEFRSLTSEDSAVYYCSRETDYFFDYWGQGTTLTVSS VL: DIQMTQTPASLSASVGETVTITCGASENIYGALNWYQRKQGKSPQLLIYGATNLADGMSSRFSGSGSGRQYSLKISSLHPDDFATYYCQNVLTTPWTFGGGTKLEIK : 0
